tgt: Serine/threonine-protein kinase ULK2 (Homo sapiens, UniProt Q8IYT8)
Sequence (Q8IYT8 whole entry): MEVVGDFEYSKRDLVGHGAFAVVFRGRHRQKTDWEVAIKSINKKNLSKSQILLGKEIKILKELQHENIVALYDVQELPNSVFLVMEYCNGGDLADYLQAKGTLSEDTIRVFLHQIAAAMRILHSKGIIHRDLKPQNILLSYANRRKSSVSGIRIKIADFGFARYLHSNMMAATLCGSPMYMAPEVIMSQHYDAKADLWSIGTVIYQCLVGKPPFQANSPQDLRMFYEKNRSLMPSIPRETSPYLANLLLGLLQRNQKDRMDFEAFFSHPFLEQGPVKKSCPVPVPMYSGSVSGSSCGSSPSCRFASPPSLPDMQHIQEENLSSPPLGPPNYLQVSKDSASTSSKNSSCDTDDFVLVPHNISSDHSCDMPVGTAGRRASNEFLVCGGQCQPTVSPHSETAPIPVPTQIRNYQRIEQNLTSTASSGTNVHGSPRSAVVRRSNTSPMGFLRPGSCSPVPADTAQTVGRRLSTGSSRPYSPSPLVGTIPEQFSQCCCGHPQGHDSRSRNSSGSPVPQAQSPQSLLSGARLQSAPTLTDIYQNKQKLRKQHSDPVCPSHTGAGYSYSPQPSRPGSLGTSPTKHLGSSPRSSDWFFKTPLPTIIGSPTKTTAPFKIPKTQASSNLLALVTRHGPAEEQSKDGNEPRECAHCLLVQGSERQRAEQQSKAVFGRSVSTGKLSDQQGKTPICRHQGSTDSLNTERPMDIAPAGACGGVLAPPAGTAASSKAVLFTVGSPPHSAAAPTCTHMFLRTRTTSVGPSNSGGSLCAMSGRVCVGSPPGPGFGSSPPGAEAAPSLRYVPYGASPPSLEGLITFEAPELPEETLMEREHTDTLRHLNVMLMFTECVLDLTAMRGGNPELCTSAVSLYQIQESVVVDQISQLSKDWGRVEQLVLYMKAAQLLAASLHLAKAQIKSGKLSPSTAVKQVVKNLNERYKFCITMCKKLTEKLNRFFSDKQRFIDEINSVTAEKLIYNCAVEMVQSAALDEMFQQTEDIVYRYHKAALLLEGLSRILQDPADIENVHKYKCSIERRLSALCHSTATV
measured-property: IC50
Please state the number and follow it with the unit.

Record summary for `O=C(NCCCNc1nc(Nc2cccc(CN3CCOCC3)c2)ncc1C1CC1)C1CC1` : reported IC50 = 1.1 nM
